src = patent US20220048967A1

Target: Pro-Link-tagged Human GLP-1R (human, UniProt P43220 24-463); also: reference of the scale not given here
Assay: cell-based or functional assay
ENDPOINT: hGLP1R B-Arrestin2 % Top (%)
One number for each entry, in %.

YXEGTFTSDYSIXLDEKAQXAFIXYLIAGGPSSGAPPPS (not fully specified; Aib2, αMeL13, K17 conjugated to (2-[2-(2-Amino-ethoxy)-ethoxy]-acetyl)2-(γ-Glu)-CO-(CH2)18-CO2H, Aib20, D-Glu24, C-terminal amide (NH2)) [Example 343] ... 41.4
XXEGTFTSDYSIXLDEKAQXEFIEYLIAGGPSSGAPPPS (not fully specified; D-Tyr1, Aib2, αMeL13, K17 conjugated to (2-[2-(2-Amino-ethoxy)-ethoxy]-acetyl)2-(γ-Glu)-CO-(CH2)18-CO2H, Aib20, C-terminal amide (NH2)) [Example 342] ... 20.7

Dear reader, for each entry below, please note its hGLP1R B-Arrestin2 % Top.
1. XXEGTFTSDYSIXLDXKAQXEFVEYLIAGGPSSGAPPPS (D-Tyr1, Aib2, αMeL13, Orn16, K17 conjugated to (2-[2-(2-Amino-ethoxy)-ethoxy]-acetyl)2-(γ-Glu)-CO-(CH2)18-CO2H, Aib20, C-terminal amide (NH2)) [Example 359]
2. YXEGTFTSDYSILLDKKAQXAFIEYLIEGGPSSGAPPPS (Aib2, K17 conjugated to (2-[2-(2-Amino-ethoxy)-ethoxy]-acetyl)2-(γ-Glu)-CO-(CH2)16-CO2H, Aib20, C-terminal amide (NH2)) [Example 315]
3. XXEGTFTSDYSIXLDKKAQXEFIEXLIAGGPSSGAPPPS (D-Tyr1, Aib2, αMeL13, K17 conjugated to (2-[2-(2-Amino-ethoxy)-ethoxy]-acetyl)-(γ-Glu)-CO-(CH2)18-CO2H, Aib20, αMeY25, C-terminal amide (NH2)) [Example 372]
4. XXEGTFTSDYSIXLDXKAQXEFIXYLIEGGPSSGAPPPS (D-Tyr1, Aib2, αMeL13, Orn16, K17 conjugated to (2-[2-(2-Amino-ethoxy)-ethoxy]-acetyl)2-(γ-Glu)-CO-(CH2)18-CO2H, Aib20, D-Glu24, C-terminal amide (NH2)) [Example 355]
5. YXEGTFTSDYSIXLDEKAQXEFIEYLIAGGPSSGAPPPS (Aib2, αMeL13, K17 conjugated to (2-[2-(2-Amino-ethoxy)-ethoxy]-acetyl)2-(γ-Glu)-CO-(CH2)18-CO2H, Aib20, C-terminal amide (NH2)) [Example 331]
6. FXEGTFTSDYSIXLDKKAQXAFIEYLIAGGPSSGAPPPS (not fully specified; Aib2, αMeL13, K17 conjugated to (2-[2-(2-Amino-ethoxy)-ethoxy]-acetyl)2-(γ-Glu)-CO-(CH2)18-CO2H, Aib20, C-terminal amide (NH2)) [Example 337]

1. 28.4
2. 25.4
3. 32.9
4. 18.3
5. 44.3
6. 34.1

The binder XXEGTFTSDYSIXLDKKAQXAFIEYLIAGGPSSGAPPPS (not fully specified; D-Tyr1, Aib2, αMeL13, K17 conjugated to (2-[2-(2-Amino-ethoxy)-ethoxy]-acetyl)2-(γ-Glu)-CO-(CH2)18-CO2H, Aib20, C-terminal amide (NH2)) [Example 340] showed hGLP1R B-Arrestin2 % Top equal to 20.1
